Test Target: T1, human Trop-2 (on the surface of human cell lines) (human, UniProt P09758 27-323)
T1 sequence: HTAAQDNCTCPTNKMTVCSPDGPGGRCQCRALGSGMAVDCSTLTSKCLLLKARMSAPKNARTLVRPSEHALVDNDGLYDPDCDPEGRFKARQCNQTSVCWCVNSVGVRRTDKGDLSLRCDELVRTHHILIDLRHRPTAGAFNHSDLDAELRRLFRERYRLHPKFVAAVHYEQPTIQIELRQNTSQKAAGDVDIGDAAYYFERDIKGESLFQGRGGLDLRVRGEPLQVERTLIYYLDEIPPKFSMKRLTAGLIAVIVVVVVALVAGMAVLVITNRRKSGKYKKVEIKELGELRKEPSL
Protocol Notes: cell-based or functional assay
Could you please report measured ADCC, PBMC killing (LDH), HCC1806, Maximum killing (%) for the items listed next?
Reply with the number, then its unit.

# query: ADCC, PBMC killing (LDH), HCC1806, Maximum killing (%) of entry hz-Ab21-2.2 (antibody, human IgG1, kappa, V domains shown, Humanized antibody) VH: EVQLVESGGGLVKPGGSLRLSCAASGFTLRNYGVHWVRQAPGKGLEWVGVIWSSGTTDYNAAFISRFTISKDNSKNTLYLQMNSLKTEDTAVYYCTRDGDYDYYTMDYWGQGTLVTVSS VL: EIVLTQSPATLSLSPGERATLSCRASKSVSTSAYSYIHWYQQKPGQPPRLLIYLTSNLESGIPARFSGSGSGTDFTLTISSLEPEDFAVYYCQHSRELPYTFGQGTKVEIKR
40.6%

# query: ADCC, PBMC killing (LDH), HCC1806, Maximum killing (%) of entry hz-Ab35-2.1 (antibody, human IgG1, kappa, V domains shown, Humanized antibody) VH: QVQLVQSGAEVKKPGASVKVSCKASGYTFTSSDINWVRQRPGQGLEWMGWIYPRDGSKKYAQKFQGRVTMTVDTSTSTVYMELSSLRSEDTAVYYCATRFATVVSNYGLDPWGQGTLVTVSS VL: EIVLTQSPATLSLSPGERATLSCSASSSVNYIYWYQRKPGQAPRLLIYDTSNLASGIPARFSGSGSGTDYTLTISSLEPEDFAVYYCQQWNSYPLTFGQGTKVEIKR
35.2%

# query: ADCC, PBMC killing (LDH), HCC1806, Maximum killing (%) of entry hz-Ab2-1.4 (antibody, human IgG1, kappa, V domains shown, Humanized antibody) VH: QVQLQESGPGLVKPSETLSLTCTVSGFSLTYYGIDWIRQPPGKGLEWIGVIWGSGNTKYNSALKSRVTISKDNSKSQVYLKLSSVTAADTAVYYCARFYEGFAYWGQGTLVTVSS VL: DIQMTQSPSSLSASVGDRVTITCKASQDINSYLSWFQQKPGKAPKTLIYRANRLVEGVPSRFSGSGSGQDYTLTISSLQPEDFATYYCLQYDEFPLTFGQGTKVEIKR
34.8%
